Tested on: Pasteurella multocida
Experiment: Effective dose required to inhibit Pasteurella multocida infection model in mouse by subcutaneous administration
Format: functional
Conditions: Pasteurella multocida, sc; read-out: ED50
The following molecules are listed with their measured ED50 values.

Would you please look over these solved cases?
molecule | ED50
CC[C@H]1OC(=O)[C@H](C)[C@@H](O[C@H]2C[C@@](C)(OC)[C@](O)(CN3CCCC3)[C@H](C)O2)[C@H](C)[C@@H](O[C@@H]2O[C@H](C)C[C@H](N(C)C)[C@H]2O)[C@](C)(O)C[C@@H](C)CN[C@H](C)[C@@H](O)[C@]1(C)O | < 10 mg/kg
CCCCCCNC[C@@]1(O)[C@H](C)O[C@@H](OC2[C@@H](C)C(=O)O[C@H](CC)[C@@](C)(O)[C@H](O)[C@@H](C)NC[C@H](C)C[C@@](C)(O)[C@H](O[C@@H]3O[C@H](C)C[C@H](N(C)C)[C@H]3O)[C@H]2C)C[C@@]1(C)OC (some centres undefined) | > 80 mg/kg
CC[C@H]1OC(=O)[C@H](C)[C@@H](O[C@H]2C[C@@](C)(OC)[C@](O)(CSCCO)[C@H](C)O2)[C@H](C)[C@@H](O[C@@H]2O[C@H](C)C[C@H](N(C)C)[C@H]2O)[C@](C)(O)C[C@@H](C)CN[C@H](C)[C@@H](O)[C@]1(C)O | > 40 mg/kg

## Input For the molecule CC[C@H]1OC(=O)[C@H](C)[C@@H](O[C@H]2C[C@@](C)(OC)[C@@](O)(CN(C)CC)[C@H](C)O2)[C@H](C)[C@@H](O[C@@H]2O[C@H](C)C[C@H](N(C)C)[C@H]2O)[C@](C)(O)C[C@@H](C)CN[C@H](C)[C@@H](O)[C@]1(C)O (stereo in doubt; 10g) , give its measured ED50 value.
## Output < 5 mg/kg
